Origin of measurements: paper PMC11345841

Molecular target: EPHA3 (Homo sapiens)
Construct: purchased Eurofins DiscoverX KINOMEscan (scanTK)
Sequence (P29320 21-983): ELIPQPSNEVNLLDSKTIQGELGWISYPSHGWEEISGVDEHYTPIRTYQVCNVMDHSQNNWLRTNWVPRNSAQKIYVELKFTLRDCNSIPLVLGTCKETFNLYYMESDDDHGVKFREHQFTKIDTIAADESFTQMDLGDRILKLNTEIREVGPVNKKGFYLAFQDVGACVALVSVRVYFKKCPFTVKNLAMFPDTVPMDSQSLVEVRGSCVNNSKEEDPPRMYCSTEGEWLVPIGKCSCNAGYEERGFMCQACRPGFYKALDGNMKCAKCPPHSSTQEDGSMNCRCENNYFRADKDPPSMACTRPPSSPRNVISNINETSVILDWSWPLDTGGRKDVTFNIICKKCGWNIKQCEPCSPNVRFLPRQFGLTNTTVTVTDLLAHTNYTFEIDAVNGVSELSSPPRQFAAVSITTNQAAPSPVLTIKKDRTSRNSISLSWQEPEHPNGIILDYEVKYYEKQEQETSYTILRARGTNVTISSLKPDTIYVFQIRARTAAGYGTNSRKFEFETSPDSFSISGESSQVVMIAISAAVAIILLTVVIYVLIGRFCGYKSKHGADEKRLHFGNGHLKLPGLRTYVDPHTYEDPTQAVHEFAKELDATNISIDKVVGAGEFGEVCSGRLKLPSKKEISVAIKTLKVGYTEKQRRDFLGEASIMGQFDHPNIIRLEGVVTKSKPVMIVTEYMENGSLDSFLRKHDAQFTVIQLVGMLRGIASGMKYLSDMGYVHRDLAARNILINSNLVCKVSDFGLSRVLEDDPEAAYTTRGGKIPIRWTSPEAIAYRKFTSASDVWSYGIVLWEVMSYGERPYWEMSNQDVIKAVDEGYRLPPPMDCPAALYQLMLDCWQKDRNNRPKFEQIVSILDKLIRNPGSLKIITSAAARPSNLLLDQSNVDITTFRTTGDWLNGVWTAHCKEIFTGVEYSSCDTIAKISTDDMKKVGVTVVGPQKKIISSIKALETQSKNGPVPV
Test: KINOMEscan ScanTK
Format: binding
Conditions: @1000nM
Below, each of the molecules is paired with its reported difference in % of control versus compound Ib at 1 µM value.
Only the number, expressed in %, is required.

Recorded results for 3 molecules are shown here.
- MOLECULE: "COC(=O)c1cnc(S(C)(=O)=O)nc1N1CCCC(n2nc(-c3ccc(Oc4ccccc4)cc3)c3c(N)ncnc32)C1 (stereo not shown)"
  VALUE_MEASURED: 1
- MOLECULE: "Cc1cnc(S(C)(=O)=O)nc1N1CCCC(n2nc(-c3ccc(Oc4ccccc4)cc3)c3c(N)ncnc32)C1 (stereo not shown)"
  VALUE_MEASURED: 5
- MOLECULE: "CCOC(=O)c1cnc(S(C)(=O)=O)nc1N1CCC[C@@H](n2nc(-c3ccc(Oc4ccccc4)cc3)c3c(N)ncnc32)C1"
  VALUE_MEASURED: 1

Turning to the following molecule.
Lookup: Input CNC(=O)c1cnc(S(C)(=O)=O)nc1N1CCCC(n2nc(-c3ccc(Oc4ccccc4)cc3)c3c(N)ncnc32)C1 (stereo not shown) , output reported difference in % of control versus compound Ib at 1 µM.
Found: 8

----------
Below, each of the compounds is paired with its reported remaining binding at 1 µM value.
Target: LYN (Homo sapiens)
Construct: purchased Eurofins DiscoverX KINOMEscan (scanTK)
Sequence (P07948 whole entry): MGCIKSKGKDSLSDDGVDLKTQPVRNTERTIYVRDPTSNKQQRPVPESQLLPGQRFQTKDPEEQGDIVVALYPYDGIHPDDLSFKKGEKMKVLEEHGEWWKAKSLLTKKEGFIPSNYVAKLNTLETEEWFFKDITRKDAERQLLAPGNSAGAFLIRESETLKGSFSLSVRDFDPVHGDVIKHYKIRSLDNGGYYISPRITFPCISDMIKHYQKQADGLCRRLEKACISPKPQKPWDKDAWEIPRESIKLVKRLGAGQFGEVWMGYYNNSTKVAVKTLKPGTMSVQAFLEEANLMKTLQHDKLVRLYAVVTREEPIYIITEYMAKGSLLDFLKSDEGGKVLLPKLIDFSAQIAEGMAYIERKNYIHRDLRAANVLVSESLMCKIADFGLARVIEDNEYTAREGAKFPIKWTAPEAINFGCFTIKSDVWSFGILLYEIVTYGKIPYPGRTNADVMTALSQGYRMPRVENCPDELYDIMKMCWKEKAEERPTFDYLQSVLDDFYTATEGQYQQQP
Test: KINOMEscan ScanTK
Assay type: binding
Conditions: read-out: %Control @1000nM
Only the number, expressed in %, is required.

Lookup: Input Cc1cnc(S(C)(=O)=O)nc1N1CCCC(n2nc(-c3ccc(Oc4ccccc4)cc3)c3c(N)ncnc32)C1 (centres unmarked) , output reported remaining binding at 1 µM.
Found: 21

Lookup: Input COC(=O)c1cnc(S(C)(=O)=O)nc1N1CCCC(n2nc(-c3ccc(Oc4ccccc4)cc3)c3c(N)ncnc32)C1 (centres unmarked) , output reported remaining binding at 1 µM.
Found: 49

Lookup: Input C=CC(=O)N1CCC[C@@H](n2nc(-c3ccc(Oc4ccccc4)cc3)c3c(N)ncnc32)C1 [Compound 1g, Ibrutinib, reference compound] , output reported remaining binding at 1 µM.
Found: 16

Lookup: Input CNC(=O)c1cnc(S(C)(=O)=O)nc1N1CCCC(n2nc(-c3ccc(Oc4ccccc4)cc3)c3c(N)ncnc32)C1 (centres unmarked) , output reported remaining binding at 1 µM.
Found: 43

Lookup: Input CCOC(=O)c1cnc(S(C)(=O)=O)nc1N1CCC[C@@H](n2nc(-c3ccc(Oc4ccccc4)cc3)c3c(N)ncnc32)C1 , output reported remaining binding at 1 µM.
Found: 72

----------
Below, each of the compounds is paired with its reported remaining binding at 1 µM value.
Target: ABL1(M351T)-phosphorylated (Homo sapiens, UniProt P00519, M351T)
Construct: purchased Eurofins DiscoverX KINOMEscan (scanTK)
Experiment: KINOMEscan ScanTK
Type: binding
Settings: @1000nM, read-out: %Control
Answer format reminder: number followed by unit.

Recorded results for 3 compounds are shown here.
- COMPOUND: "COC(=O)c1cnc(S(C)(=O)=O)nc1N1CCCC(n2nc(-c3ccc(Oc4ccccc4)cc3)c3c(N)ncnc32)C1 (stereo not shown)"
  remaining binding at 1 µM: "66%"
- COMPOUND: "Cc1cnc(S(C)(=O)=O)nc1N1CCCC(n2nc(-c3ccc(Oc4ccccc4)cc3)c3c(N)ncnc32)C1 (stereo not shown)"
  remaining binding at 1 µM: "65%"
- COMPOUND: "CCOC(=O)c1cnc(S(C)(=O)=O)nc1N1CCC[C@@H](n2nc(-c3ccc(Oc4ccccc4)cc3)c3c(N)ncnc32)C1"
  remaining binding at 1 µM: "77%"

Turning to the following compound.
Lookup: Input CNC(=O)c1cnc(S(C)(=O)=O)nc1N1CCCC(n2nc(-c3ccc(Oc4ccccc4)cc3)c3c(N)ncnc32)C1 (stereo not shown) , output reported remaining binding at 1 µM.
Found: 74%

----------
Target: ABL1(F317L)-phosphorylated (Homo sapiens, UniProt P00519, F317L)
Construct: purchased Eurofins DiscoverX KINOMEscan (scanTK)
Assay: KINOMEscan ScanTK
Format: binding
Conditions: @1000nM, read-out: %Control
EXPERIMENTAL_ENDPOINT: remaining binding at 1 µM (%)
Only the number, expressed in %, is required.

Recorded results for 3 compounds are shown here.
- COMPOUND: "Cc1cnc(S(C)(=O)=O)nc1N1CCCC(n2nc(-c3ccc(Oc4ccccc4)cc3)c3c(N)ncnc32)C1 (stereo not shown) [Compound 8a]"
  READOUT_UNITS: "%"
  VALUE_MEASURED: 52
- COMPOUND: "CCOC(=O)c1cnc(S(C)(=O)=O)nc1N1CCC[C@@H](n2nc(-c3ccc(Oc4ccccc4)cc3)c3c(N)ncnc32)C1 [Compound 8c]"
  READOUT_UNITS: "%"
  VALUE_MEASURED: 86
- COMPOUND: "COC(=O)c1cnc(S(C)(=O)=O)nc1N1CCCC(n2nc(-c3ccc(Oc4ccccc4)cc3)c3c(N)ncnc32)C1 (stereo not shown) [Compound 8b]"
  READOUT_UNITS: "%"
  VALUE_MEASURED: 53

Turning to the following compound.
Lookup: Input CNC(=O)c1cnc(S(C)(=O)=O)nc1N1CCCC(n2nc(-c3ccc(Oc4ccccc4)cc3)c3c(N)ncnc32)C1 (stereo not shown) [Compound 8d] , output reported remaining binding at 1 µM.
Found: 76

----------
Molecular target: EPHA4 (Homo sapiens)
Construct: purchased Eurofins DiscoverX KINOMEscan (scanTK)
Sequence (P54764 20-986): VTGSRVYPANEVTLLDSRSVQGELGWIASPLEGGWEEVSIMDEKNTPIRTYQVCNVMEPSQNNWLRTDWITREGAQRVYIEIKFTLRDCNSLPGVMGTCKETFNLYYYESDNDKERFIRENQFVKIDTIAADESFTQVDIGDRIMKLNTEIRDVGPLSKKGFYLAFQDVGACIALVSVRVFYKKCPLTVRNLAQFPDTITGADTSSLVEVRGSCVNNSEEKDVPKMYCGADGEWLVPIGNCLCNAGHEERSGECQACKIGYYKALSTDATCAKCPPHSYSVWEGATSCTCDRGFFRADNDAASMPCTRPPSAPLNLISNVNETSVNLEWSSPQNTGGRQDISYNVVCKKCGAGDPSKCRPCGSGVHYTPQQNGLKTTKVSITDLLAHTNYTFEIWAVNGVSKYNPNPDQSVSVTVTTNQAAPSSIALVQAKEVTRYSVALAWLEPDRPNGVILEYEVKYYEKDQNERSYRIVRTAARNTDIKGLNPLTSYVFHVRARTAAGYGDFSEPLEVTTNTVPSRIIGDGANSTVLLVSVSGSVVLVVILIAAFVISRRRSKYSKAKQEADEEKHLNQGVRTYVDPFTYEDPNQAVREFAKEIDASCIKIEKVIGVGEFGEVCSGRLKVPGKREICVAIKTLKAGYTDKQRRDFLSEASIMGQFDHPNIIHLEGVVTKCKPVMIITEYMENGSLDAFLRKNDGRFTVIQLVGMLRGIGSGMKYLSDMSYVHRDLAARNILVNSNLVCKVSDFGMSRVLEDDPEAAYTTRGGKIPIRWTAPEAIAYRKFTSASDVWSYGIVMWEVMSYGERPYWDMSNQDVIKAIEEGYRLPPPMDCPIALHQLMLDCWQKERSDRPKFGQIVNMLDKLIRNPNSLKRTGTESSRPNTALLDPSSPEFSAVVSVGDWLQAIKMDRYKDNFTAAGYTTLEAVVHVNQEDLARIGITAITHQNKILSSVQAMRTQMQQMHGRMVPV
Test: KINOMEscan ScanTK
Assay type: binding
Conditions: @1000nM, read-out: %Control
EXPERIMENTAL_ENDPOINT: remaining binding at 1 µM (%)
Only the number, expressed in %, is required.

Lookup: Input CNC(=O)c1cnc(S(C)(=O)=O)nc1N1CCCC(n2nc(-c3ccc(Oc4ccccc4)cc3)c3c(N)ncnc32)C1 (centres unmarked) [Compound 8d] , output reported remaining binding at 1 µM.
Found: 100

Lookup: Input C=CC(=O)N1CCC[C@@H](n2nc(-c3ccc(Oc4ccccc4)cc3)c3c(N)ncnc32)C1 [Compound 1g, Ibrutinib, reference compound] , output reported remaining binding at 1 µM.
Found: 91

Lookup: Input COC(=O)c1cnc(S(C)(=O)=O)nc1N1CCCC(n2nc(-c3ccc(Oc4ccccc4)cc3)c3c(N)ncnc32)C1 (centres unmarked) [Compound 8b] , output reported remaining binding at 1 µM.
Found: 98

Lookup: Input Cc1cnc(S(C)(=O)=O)nc1N1CCCC(n2nc(-c3ccc(Oc4ccccc4)cc3)c3c(N)ncnc32)C1 (centres unmarked) [Compound 8a] , output reported remaining binding at 1 µM.
Found: 100

Lookup: Input CCOC(=O)c1cnc(S(C)(=O)=O)nc1N1CCC[C@@H](n2nc(-c3ccc(Oc4ccccc4)cc3)c3c(N)ncnc32)C1 [Compound 8c] , output reported remaining binding at 1 µM.
Found: 100

----------
Biological target: TRKB (Homo sapiens, UniProt Q16620)
Construct: purchased Eurofins DiscoverX KINOMEscan (scanTK)
Sequence (Q16620 32-822): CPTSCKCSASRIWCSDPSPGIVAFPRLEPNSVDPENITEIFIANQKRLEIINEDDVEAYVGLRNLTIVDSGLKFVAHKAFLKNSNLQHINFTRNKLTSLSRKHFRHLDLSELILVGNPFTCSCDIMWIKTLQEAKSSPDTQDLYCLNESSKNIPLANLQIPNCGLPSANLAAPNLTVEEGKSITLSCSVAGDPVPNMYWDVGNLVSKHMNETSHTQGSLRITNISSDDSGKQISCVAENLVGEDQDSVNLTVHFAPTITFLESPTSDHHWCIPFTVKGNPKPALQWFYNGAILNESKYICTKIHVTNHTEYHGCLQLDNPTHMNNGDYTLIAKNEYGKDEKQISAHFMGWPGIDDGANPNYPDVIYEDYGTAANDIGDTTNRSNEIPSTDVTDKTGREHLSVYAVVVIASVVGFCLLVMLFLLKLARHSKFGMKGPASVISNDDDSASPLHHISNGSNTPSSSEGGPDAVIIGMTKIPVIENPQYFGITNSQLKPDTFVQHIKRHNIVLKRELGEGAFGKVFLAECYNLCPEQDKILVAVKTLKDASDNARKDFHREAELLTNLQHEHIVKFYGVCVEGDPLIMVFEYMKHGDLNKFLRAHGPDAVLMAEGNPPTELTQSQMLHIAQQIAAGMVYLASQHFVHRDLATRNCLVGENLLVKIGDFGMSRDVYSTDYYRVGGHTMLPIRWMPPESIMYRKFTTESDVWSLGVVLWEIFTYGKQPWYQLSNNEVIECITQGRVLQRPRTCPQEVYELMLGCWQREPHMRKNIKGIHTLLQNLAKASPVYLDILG
Test: KINOMEscan ScanTK
Format: binding
Conditions: @1000nM; TRKB; read-out: %Control
EXPERIMENTAL_ENDPOINT: remaining binding at 1 µM (%)
Only the number, expressed in %, is required.

Recorded results for 3 molecules are shown here.
- MOLECULE: "COC(=O)c1cnc(S(C)(=O)=O)nc1N1CCCC(n2nc(-c3ccc(Oc4ccccc4)cc3)c3c(N)ncnc32)C1 (stereo not shown) [Compound 8b]"
  ASSAYED_SYSTEM: "TRKB (Homo sapiens, UniProt Q16620)"
  remaining binding at 1 µM [%]: 99
- MOLECULE: "Cc1cnc(S(C)(=O)=O)nc1N1CCCC(n2nc(-c3ccc(Oc4ccccc4)cc3)c3c(N)ncnc32)C1 (stereo not shown) [Compound 8a]"
  ASSAYED_SYSTEM: "TRKB (Homo sapiens, UniProt Q16620)"
  remaining binding at 1 µM [%]: 75
- MOLECULE: "CNC(=O)c1cnc(S(C)(=O)=O)nc1N1CCCC(n2nc(-c3ccc(Oc4ccccc4)cc3)c3c(N)ncnc32)C1 (stereo not shown) [Compound 8d]"
  ASSAYED_SYSTEM: "TRKB (Homo sapiens, UniProt Q16620)"
  remaining binding at 1 µM [%]: 87

Lookup: Input CCOC(=O)c1cnc(S(C)(=O)=O)nc1N1CCC[C@@H](n2nc(-c3ccc(Oc4ccccc4)cc3)c3c(N)ncnc32)C1 [Compound 8c] , output reported remaining binding at 1 µM.
Found: 77

----------
Target: FLT1 (Homo sapiens, UniProt P17948)
Construct: purchased Eurofins DiscoverX KINOMEscan (scanTK)
Sequence (P17948 27-1338): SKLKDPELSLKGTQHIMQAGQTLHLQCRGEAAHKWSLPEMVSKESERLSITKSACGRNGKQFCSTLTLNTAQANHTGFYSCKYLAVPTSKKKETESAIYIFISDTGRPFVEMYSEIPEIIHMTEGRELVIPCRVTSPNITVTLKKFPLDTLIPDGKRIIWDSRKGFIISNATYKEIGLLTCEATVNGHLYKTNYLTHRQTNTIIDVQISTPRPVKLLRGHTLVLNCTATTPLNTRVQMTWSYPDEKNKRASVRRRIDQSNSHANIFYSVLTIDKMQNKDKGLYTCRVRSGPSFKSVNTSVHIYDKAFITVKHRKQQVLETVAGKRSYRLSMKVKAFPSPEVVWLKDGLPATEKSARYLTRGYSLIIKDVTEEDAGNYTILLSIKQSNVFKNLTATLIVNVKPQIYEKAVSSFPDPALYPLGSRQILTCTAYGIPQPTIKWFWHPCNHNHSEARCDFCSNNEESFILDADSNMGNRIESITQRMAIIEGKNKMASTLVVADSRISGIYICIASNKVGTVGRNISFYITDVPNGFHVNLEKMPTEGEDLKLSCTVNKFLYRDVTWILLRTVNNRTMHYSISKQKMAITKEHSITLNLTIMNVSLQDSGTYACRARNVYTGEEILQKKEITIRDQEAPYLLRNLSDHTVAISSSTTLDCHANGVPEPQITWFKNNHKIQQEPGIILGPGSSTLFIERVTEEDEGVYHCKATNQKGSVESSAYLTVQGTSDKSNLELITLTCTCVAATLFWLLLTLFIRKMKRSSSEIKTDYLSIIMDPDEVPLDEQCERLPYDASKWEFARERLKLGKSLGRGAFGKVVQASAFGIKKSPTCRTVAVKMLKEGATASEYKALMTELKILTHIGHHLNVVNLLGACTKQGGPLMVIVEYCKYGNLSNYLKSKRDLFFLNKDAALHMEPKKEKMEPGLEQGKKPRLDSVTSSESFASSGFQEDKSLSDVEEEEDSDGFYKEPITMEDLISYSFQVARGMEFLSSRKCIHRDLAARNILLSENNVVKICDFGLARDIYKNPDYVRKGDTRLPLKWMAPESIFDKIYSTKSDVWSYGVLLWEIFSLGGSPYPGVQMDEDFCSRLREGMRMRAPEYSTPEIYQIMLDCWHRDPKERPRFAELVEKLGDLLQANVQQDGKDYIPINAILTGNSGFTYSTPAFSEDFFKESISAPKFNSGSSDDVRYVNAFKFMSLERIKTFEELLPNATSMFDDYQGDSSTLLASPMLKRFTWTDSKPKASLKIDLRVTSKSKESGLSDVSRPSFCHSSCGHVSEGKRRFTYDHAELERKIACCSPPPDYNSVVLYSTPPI
Assay: KINOMEscan ScanTK
Format: binding
Settings: @1000nM
Below, each of the compounds is paired with its reported difference in %Control from compound Ib at 1 µM value.
Only the number, expressed in %, is required.

Recorded results for 3 compounds are shown here.
- COMPOUND: "Cc1cnc(S(C)(=O)=O)nc1N1CCCC(n2nc(-c3ccc(Oc4ccccc4)cc3)c3c(N)ncnc32)C1 (stereo not shown) [Compound 8a]"
  VALUE_MEASURED: 21
- COMPOUND: "CCOC(=O)c1cnc(S(C)(=O)=O)nc1N1CCC[C@@H](n2nc(-c3ccc(Oc4ccccc4)cc3)c3c(N)ncnc32)C1 [Compound 8c]"
  VALUE_MEASURED: 28
- COMPOUND: "COC(=O)c1cnc(S(C)(=O)=O)nc1N1CCCC(n2nc(-c3ccc(Oc4ccccc4)cc3)c3c(N)ncnc32)C1 (stereo not shown) [Compound 8b]"
  VALUE_MEASURED: 26

Turning to the following compound.
Lookup: Input CNC(=O)c1cnc(S(C)(=O)=O)nc1N1CCCC(n2nc(-c3ccc(Oc4ccccc4)cc3)c3c(N)ncnc32)C1 (stereo not shown) [Compound 8d] , output reported difference in %Control from compound Ib at 1 µM.
Found: 28
